Entry source: ChEMBL document CHEMBL1156992

Test: Metabolic stability in rat microsomes assessed as drug remaining after 10 mins
Type: ADME, Microsome
Conditions: read-out: Stability
# yes = remaining at 10 min below 70% (exclusive); no = remaining at 10 min at/above 70%

>>> assigned_category("CN[C@@H]1CCN(c2nc(N)nc3c2oc2ccc(Cl)cc23)C1")
"yes"
>>> assigned_category("CNC1CCN(c2ncnc3c2oc2ccc(C(=O)O)cc23)C1 (stereo unspecified)")
"no"
>>> assigned_category("COc1nc(N2CCN(C)CC2)c2oc3ccc(Cl)cc3c2n1")
"yes"
>>> assigned_category("CNC1CCN(c2nc(C)nc3c2oc2ccc(Cl)cc23)C1 (stereo unspecified)")
"no"
>>> assigned_category("CC1CN(c2ncnc3c2oc2ccc(Cl)cc23)CCN1C (stereo unspecified)")
"yes"
>>> assigned_category("CN1CCN(c2nc(O)nc3c2oc2ccc(Cl)cc23)CC1")
"no"
>>> assigned_category("CN[C@@H]1CCN(c2ncnc3c2oc2ccc(C)cc23)C1")
"no"
>>> assigned_category("CN1CCN(c2ncnc3c2oc2ccc(Cl)cc23)CC1")
"yes"
>>> assigned_category("CN1C[C@@H]2C[C@H]1CN2c1ncnc2c1oc1ccc(Cl)cc12")
"no"
>>> assigned_category("CNC1CCN(c2ncnc3c2oc2ccc(-c4ccccc4)cc23)C1 (stereo unspecified)")
"no"
>>> assigned_category("CN1C2CCC1CN(c1ncnc3c1oc1ccc(Cl)cc13)C2")
"yes"
>>> assigned_category("CNC1CCN(c2ncnc3c2oc2ccc(Cl)cc23)C1 (stereo unspecified)")
"no"
>>> assigned_category("CNC1CCN(c2ncnc3c2oc2ccc(C#N)cc23)C1 (stereo unspecified)")
"no"
>>> assigned_category("CN1CC2CCC1CN2c1ncnc2c1oc1ccc(Cl)cc12 (stereo unspecified)")
"yes"
>>> assigned_category("Clc1ccc2oc3c(N4CCN5CCCC5C4)ncnc3c2c1 (stereo unspecified)")
"yes"

* * *

Molecular target: Histamine H4 receptor (Homo sapiens)
Sequence (Q9H3N8 whole entry): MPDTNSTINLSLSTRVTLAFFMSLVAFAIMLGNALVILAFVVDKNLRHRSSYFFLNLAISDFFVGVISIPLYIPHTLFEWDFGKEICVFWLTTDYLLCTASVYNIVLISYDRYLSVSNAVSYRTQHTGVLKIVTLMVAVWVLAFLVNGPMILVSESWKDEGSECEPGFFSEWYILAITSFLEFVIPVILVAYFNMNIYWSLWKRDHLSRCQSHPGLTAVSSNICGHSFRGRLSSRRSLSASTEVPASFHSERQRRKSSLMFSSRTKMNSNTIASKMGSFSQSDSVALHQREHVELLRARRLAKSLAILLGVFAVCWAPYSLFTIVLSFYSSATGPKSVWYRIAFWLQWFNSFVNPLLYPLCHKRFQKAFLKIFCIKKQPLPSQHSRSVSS
Experiment: Displacement of [3H]histamine dihydrochloride from human histamine H4 receptor after 2.5 hrs by scintillation proximity assay
pIC50: −log10 of the molar value.
Reported Property: pIC50

>>> result("CNC1CCN(c2ncnc3c2oc2ccc(C(=O)O)cc23)C1 (configuration not stated)")
"< 4.52"
>>> result("CCNC1CCN(c2ncnc3c2oc2ccc(Cl)cc23)C1 (configuration not stated)")
"< 5.00"
>>> result("CN[C@@H]1CCN(c2ncnc3c2oc2ccc(Cl)cc23)C1")
7.48
>>> result("Clc1ccc2oc3c(N4CC5CCCNC5C4)ncnc3c2c1 (configuration not stated)")
5.85
>>> result("CNC1CCCN(c2ncnc3c2oc2ccc(Cl)cc23)C1 (configuration not stated)")
"< 5.00"
>>> result("CN1CC2CCC1CN2c1ncnc2c1oc1ccc(Cl)cc12 (configuration not stated)")
6.77
>>> result("CNC1CCN(c2ncnc3c2oc2ccc(-c4ccccc4)cc23)C1 (configuration not stated)")
"< 5.00"
>>> result("CN1CCN(c2nc(C(=O)O)nc3c2oc2ccc(Cl)cc23)CC1")
"< 5.00"
>>> result("CN1CCN(c2nc(-c3ccccc3)nc3c2oc2ccc(Cl)cc23)CC1")
"< 4.52"
>>> result("CN1C2CCC1CN(c1ncnc3c1oc1ccc(Cl)cc13)C2")
6.36
>>> result("CNC1CCN(c2ncnc3c2oc2ccc(Cl)cc23)CC1")
"< 5.00"
>>> result("CNC(=O)c1ccc2oc3c(N4CCC(NC)C4)ncnc3c2c1 (configuration not stated)")
"< 4.52"
